- System: ubiquinone-binding site of complex I (site IQ)
- experimental.details: Site-specific H2O2 production from site IQ in skeletal muscle mitochondria;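 also: H2O2 from superoxide detected by Amplex UltraRed fluorescence with added superoxide dismutase and horseradish peroxidase, endpoint read 30–40 min after substrate addition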
- Assay type: biochemical, rat
- conditions.used: primary screen, ∼2.5 µM, average of duplicates; 5 mM succinate
experimental.readout: IQ (% change from DMSO) (%)

COc1cc(CN2CCOCC2)ccc1O: -20.0
CCN1CCN(C/C=C/c2ccc(N(C)C)cc2)CC1: -2.9
O=C1c2ccccc2C(=O)N1CCc1c[nH]c2ccc(O)cc12: -44.7
COc1ccc(NCCNc2ccc(OC)cc2)cc1: -49.0
COc1ccc(O)c(CN2CCC(N3CCCCC3)CC2)c1: -18.2
COc1ccc(NCc2ccccc2)cc1: -27.5
O=C(O)CCC(=O)Nc1ccc(-c2nc3ccccc3o2)cc1: 0.759
O=C(Nc1ccc(O)cc1)c1ccco1: -9.9
O=C(O)CCC(=O)Nc1ccc(-c2nc3ccccc3[nH]2)cc1: 1.0
CC1(C)CC(=O)C2=C(C1)Nc1cc(Cl)ccc1S2: -52.0
Nc1cc(C(=O)O)c(N)cc1C(=O)O: -6.3
O=[N+]([O-])c1ccc2[nH]c(-c3ccccc3)cc2c1: -70.5
CCC1CCCCN1C/C=C/c1ccc(N(C)C)cc1 (stereo not shown): -0.0537
Nc1ccc(-c2nc3ccc(N)cc3[nH]2)cc1: -61.6
CCCCc1c(C(=O)O)cc(C)cc1C(=O)O: -6.2
COc1ccc(CNc2cccc(N(C)C)c2)cc1: -34.0
COc1ccc(NCC2CCCCC2)cc1: -40.9
CC(=O)N(C)c1ccc(NC(=O)c2ccc(-c3ccccc3)cc2)cc1: -6.3
Nc1nc(-c2ccc(Cl)c(Cl)c2)cs1: -3.1
